- TARGET_ENTITY: Adenosine receptor A3 (Homo sapiens)
- RUN_DESCRIPTION: Displacement of [125I]AB-MECA from human adenosine A3 receptor expressed in CHO cells at 10 uM
ATTRIBUTE_MEASURED: inhibition (%)
Report the value in % with no unit label.

Name the recorded inhibition for COC(=O)c1cnc2c(cnn2CC(Cl)c2ccccc2)c1NCCc1ccccc1 (centres undefined) .
0

Item CCOC(=O)c1cnc2c(cnn2CC(Cl)c2ccccc2)c1NCCc1ccc(Cl)cc1 (centres undefined) has what recorded inhibition?
46

Returns the measured inhibition for the input compound. Input: CCCCOC(=O)c1cnc2c(cnn2CC(Cl)c2ccccc2)c1NC1CC1 (centres undefined)
0

# query: inhibition of entry CCCNc1c(C(=O)OC(C)C)cnc2c1cnn2CC(Cl)c1ccccc1 (centres undefined)
0
